experiment-description: Trough plasma concentration in child with invasive aspergillosis at 30 mg/day for 5 days measured on last day of therapy
Format: ADME, organism-based
run-parameters: human, read-out: Cmin
readout-name: concentration at 120 h (ng/mL)
Give the value in ng/mL but do not write ng/mL after it.

Per the records, this compound ( CC[C@H](C)C[C@H](C)CCCCCCCCC(=O)N[C@H]1C[C@@H](O)[C@@H](NCCN)NC(=O)[C@@H]2[C@@H](O)CCN2C(=O)[C@H]([C@H](O)CCN)NC(=O)[C@H]([C@H](O)[C@@H](O)c2ccc(O)cc2)NC(=O)[C@@H]2C[C@@H](O)CN2C(=O)[C@H]([C@@H](C)O)NC1=O ) has concentration at 120 h equal to 6700

Cited source for all entries: ChEMBL document CHEMBL1137019
